Test: Half life in mouse at 1 mg/kg, iv
Type: ADME, organism-based
Parameters: dose 1 mg/kg, route intravenous
Conditions: in vivo
Measurement label: half-life (min)
Write it as a number; the unit min goes unstated.

{"Chemical smiles": "COc1ccc(-c2ccc(NC(=O)Nc3cccc(C(F)(F)F)c3)cc2)c2c(N)noc12", "half-life, min": 54}

Let's switch to this molecule now.
What value of half-life has been recorded for this entry: COc1ccc(-c2ccc(NC(=O)Nc3cccc(Cl)c3)cc2)c2c(N)noc12
54

* * *

Reported IC50, Vascular endothelial growth factor receptor 2 (Homo sapiens).

{"Chemical smiles": "Nc1noc2cccc(-c3ccc(NC(=O)c4ccccc4)cc3)c12", "IC50": "> 12.5 µM"}
{"Chemical smiles": "Nc1noc2cccc(-c3ccc(NC(=O)/C=C/c4cccc(C(F)(F)F)c4)cc3)c12", "IC50": "> 12.5 µM"}
{"Chemical smiles": "Nc1nsc2cccc(-c3ccc(NC(=O)Nc4cccc(C(F)(F)F)c4)cc3)c12", "IC50": "0.247 µM"}

What IC50 value was documented for this compound, COc1ccc(NC(=O)Nc2ccc(-c3cccc4onc(N)c34)cc2)cc1Cl ?
0.008 µM

Try Cc1ccc(F)c(NC(=O)Nc2ccc(-c3ccc(CN4CCOCC4)c4onc(N)c34)cc2)c1 next.
0.365 µM

Also Cc1ccc(F)c(NC(=O)Nc2ccc(-c3cccc4snc(N)c34)cc2)c1 , if possible.
0.628 µM

How about this compound: Cc1ccc(F)c(NC(=O)Nc2ccc(-c3ccc(F)c4onc(N)c34)cc2)c1
0.211 µM

* * *

Reported half-life by item:
Experiment: Half life in mouse at 3 mg/kg, iv
Type: ADME, organism-based
Parameters: dose 3 mg/kg, route intravenous
Details: in vivo
# answer = value followed by unit

Completed entries (count: 3):
{"Molecule": "Nc1noc2cccc(-c3ccc(NC(=O)Nc4ccc(F)c(C(F)(F)F)c4)cc3)c12", "Measurement label": "half-life", "Result": "1.2 h"}
{"Molecule": "COc1ccc(-c2ccc(NC(=O)Nc3cccc(Br)c3)cc2)c2c(N)noc12", "Measurement label": "half-life", "Result": "1.9 h"}
{"Molecule": "COc1ccc(-c2ccc(NC(=O)Nc3cc(C)ccc3F)cc2)c2c(N)noc12", "Measurement label": "half-life", "Result": "0.66 h"}

Now for a further molecule.
half-life lookup needed for Cc1ccc(F)c(NC(=O)Nc2ccc(-c3cccc4[nH]nc(N)c34)cc2)c1 [LINIFANIB] , thanks.
1.7 h

* * *

Molecular target: Mast/stem cell growth factor receptor Kit (Homo sapiens, UniProt P10721)
Sequence (P10721 whole entry): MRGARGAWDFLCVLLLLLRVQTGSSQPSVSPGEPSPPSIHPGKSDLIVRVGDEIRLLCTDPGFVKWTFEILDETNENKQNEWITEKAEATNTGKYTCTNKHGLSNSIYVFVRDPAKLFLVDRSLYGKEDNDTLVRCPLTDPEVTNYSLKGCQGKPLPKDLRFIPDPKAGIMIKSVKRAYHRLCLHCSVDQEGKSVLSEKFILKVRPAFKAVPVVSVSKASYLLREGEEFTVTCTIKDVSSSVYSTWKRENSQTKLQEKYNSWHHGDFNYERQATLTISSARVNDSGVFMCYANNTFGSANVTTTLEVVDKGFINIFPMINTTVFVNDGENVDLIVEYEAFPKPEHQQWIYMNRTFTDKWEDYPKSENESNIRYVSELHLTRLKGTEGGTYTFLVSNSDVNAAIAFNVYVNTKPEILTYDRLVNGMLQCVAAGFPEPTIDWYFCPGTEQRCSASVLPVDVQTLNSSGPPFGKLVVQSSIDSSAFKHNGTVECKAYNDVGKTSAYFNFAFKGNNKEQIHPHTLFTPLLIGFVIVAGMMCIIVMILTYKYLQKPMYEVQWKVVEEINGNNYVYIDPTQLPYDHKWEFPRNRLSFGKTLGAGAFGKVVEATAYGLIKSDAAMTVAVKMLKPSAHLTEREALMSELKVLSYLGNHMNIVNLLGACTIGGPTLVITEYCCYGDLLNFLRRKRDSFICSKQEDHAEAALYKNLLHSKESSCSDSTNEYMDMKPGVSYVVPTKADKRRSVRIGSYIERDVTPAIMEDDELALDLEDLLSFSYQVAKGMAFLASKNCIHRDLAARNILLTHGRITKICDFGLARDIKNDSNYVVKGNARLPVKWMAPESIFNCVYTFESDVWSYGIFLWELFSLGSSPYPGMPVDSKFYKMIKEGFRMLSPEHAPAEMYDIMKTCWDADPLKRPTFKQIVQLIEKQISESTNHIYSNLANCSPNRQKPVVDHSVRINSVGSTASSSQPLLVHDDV
Please respond with true when measured IC50 is strictly beneath 100 nM, and with false in all other cases.

Some solved cases for reference:
{"Chemical smiles": "Cc1ccc(F)c(NC(=O)Nc2ccc(-c3ccc(CN4CCOCC4)c4onc(N)c34)cc2)c1", "Label class": "false"}
{"Chemical smiles": "Cc1ccc(F)c(NC(=O)Nc2ccc(-c3ccc(F)c4onc(N)c34)cc2)c1", "Label class": "false"}
{"Chemical smiles": "Nc1noc2cccc(-c3ccc(NC(=O)Nc4ccccc4OC(F)(F)F)cc3)c12", "Label class": "false"}

Answer whether the compound Nc1noc2cccc(-c3ccc(NC(=O)Nc4ccc(F)cc4)cc3)c12 has IC50 strictly less than 100 nM
true

Moving on to the next compound: NC(=O)Nc1ccc(-c2cccc3onc(N)c23)cc1
false

Again, but for Nc1noc2cccc(-c3ccc(NC(=O)Nc4ccccc4F)cc3)c12
true

Same for Nc1noc2cccc(-c3ccc(NC(=O)Nc4ccccc4)cc3)c12
true

Try the compound COc1ccc(-c2ccc(NC(=O)Nc3cc(C)ccc3F)cc2)c2c(N)noc12
true

Field entry: Nc1noc2cccc(-c3ccc(NC(=O)c4ccccc4)cc3)c12
false

The measured values listed here are drawn from ChEMBL document CHEMBL1142358.
